# target-under-test: Polyunsaturated fatty acid 5-lipoxygenase (Homo sapiens)
# method-notes: Inhibition of human recombinant 5-LOX expressed in Escherichia coli BL21 incubated for 10 mins in presence of arachidonic acid by RP-HPLC based cell-free assay
pIC50: −log10 of the molar value.
Mark false for pIC50 values under 6, and true for everything at or above.

// known answers, use as guide
CCCCCCCCCCCCCCC1=C(OC)C(OC)=CC(=O)C1=O :: true
CCCCCCCCCCCCCCC1=C(O)C(=O)C=C(OC)C1=O :: true

Evaluate COC1=CC(=O)C(=O)C(C/C=C(\C)CCC=C(C)C)=C1OC : pIC50 at minimum 6?
true

Can CCCCCCCCCCCCCC1=C(O)C(=O)C=C(O)C1=O [Rapanone] be said to have pIC50 at or above 6?
true

Check this compound for pIC50 at or above 6: CCCCCCCCCCCCCCCC1=C(OC)C(OC)=CC(=O)C1=O
true

In plain terms: is recorded pIC50 at least 6 for CCCCCCCCCCCCCCCCC1=C(O)C(=O)C=C(OC)C1=O ?
false

Hi team, for CCCCCCC1=C(OC)C(=O)C=C(OC)C1=O , is the recorded pIC50 at or above 6?
false

# check: pIC50 of CCCCCCCCCCCCCCCC1=C(OC)C(=O)C=C(OC)C1=O is greater than or equal to 6
true

# check: pIC50 of CCCCCCCCCCCCC1=C(OC)C(OC)=CC(=O)C1=O is greater than or equal to 6
true

---

# Activity per record follows
# target-under-test: Polyunsaturated fatty acid 5-lipoxygenase (Homo sapiens) (UniProt P09917)
# Sequence (whole entry): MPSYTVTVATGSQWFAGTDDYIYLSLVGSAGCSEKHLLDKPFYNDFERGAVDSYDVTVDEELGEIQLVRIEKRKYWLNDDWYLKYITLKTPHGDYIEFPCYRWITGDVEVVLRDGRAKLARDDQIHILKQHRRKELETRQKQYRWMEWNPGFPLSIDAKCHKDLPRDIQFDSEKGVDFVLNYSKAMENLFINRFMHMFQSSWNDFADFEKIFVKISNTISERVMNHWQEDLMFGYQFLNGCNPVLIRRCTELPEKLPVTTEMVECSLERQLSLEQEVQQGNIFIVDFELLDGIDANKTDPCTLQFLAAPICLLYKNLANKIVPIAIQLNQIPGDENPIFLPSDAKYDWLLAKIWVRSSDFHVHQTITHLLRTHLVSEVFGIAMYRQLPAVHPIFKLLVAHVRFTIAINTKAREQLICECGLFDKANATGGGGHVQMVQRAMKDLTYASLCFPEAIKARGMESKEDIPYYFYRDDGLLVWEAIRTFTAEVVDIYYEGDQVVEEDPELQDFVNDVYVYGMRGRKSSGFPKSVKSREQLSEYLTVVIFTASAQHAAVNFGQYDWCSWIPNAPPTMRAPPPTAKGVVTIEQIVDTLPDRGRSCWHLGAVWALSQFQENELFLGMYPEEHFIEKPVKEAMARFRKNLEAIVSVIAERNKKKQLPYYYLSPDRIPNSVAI
# method-notes: Inhibition of 5-LOX in A23187-stimulated human blood PMNL assessed as remaining activity by measuring lipoxygenase products formation at 10 uM in presence of arachidonic acid pre-incubated for 15 mins followed by stimulation with A23187 for 10 mins by RP-HPLC based cell based assay
Write it as a number; the unit % goes unstated.

CCCCCCCCC1=C(O)C(=O)C=C(OC)C1=O :: 72.9
CC(C)=CCC/C(C)=C/CC/C(C)=C/CC1=C(O)C(=O)C=C(O)C1=O :: 66.6
CCCCC1=C(O)C(=O)C=C(OC)C1=O :: 95.7
CCCCCCCCCCCCCCCC1=C(OC)C(OC)=CC(=O)C1=O :: 66.8
CCCCCCCCC1=C(O)C(=O)C=C(O)C1=O :: 80.1

Now let's try a different one.
Fill in Activity for CCCCCCC1=C(O)C(=O)C=C(OC)C1=O tested with Polyunsaturated fatty acid 5-lipoxygenase (Homo sapiens) (UniProt P09917).
64.1

---

# target-under-test: Polyunsaturated fatty acid 5-lipoxygenase (Homo sapiens)
# method-notes: Inhibition of 5-LOX in A23187-stimulated human blood PMNL assessed as reduction in lipoxygenase products formation pre-incubated for 15 mins followed by stimulation with A23187 for 10 mins by RP-HPLC based cell based assay
Catalogue of molecules with associated IC50

Worked set:
CCCCC1=C(OC)C(=O)C=C(OC)C1=O :: 3400 nM
CCCCCCCCCCCCCC1=C(O)C(=O)C=C(OC)C1=O :: 770 nM
CCCCCCCCC1=C(OC)C(OC)=CC(=O)C1=O :: 380 nM
CCCCC1=C(O)C(=O)C=C(OC)C1=O :: > 10000 nM
CCCCCCCCCCC1=C(OC)C(=O)C=C(OC)C1=O :: 600 nM

Proceeding to the next molecule to report its IC50.
In one line, give reported IC50 of the entry CCCCCCCCCCCCCCC1=C(OC)C(=O)C=C(OC)C1=O .
290 nM

---

Listed here: items and their measured Activity.
# target-under-test: Polyunsaturated fatty acid lipoxygenase ALOX15 (Homo sapiens)
# Sequence (whole entry): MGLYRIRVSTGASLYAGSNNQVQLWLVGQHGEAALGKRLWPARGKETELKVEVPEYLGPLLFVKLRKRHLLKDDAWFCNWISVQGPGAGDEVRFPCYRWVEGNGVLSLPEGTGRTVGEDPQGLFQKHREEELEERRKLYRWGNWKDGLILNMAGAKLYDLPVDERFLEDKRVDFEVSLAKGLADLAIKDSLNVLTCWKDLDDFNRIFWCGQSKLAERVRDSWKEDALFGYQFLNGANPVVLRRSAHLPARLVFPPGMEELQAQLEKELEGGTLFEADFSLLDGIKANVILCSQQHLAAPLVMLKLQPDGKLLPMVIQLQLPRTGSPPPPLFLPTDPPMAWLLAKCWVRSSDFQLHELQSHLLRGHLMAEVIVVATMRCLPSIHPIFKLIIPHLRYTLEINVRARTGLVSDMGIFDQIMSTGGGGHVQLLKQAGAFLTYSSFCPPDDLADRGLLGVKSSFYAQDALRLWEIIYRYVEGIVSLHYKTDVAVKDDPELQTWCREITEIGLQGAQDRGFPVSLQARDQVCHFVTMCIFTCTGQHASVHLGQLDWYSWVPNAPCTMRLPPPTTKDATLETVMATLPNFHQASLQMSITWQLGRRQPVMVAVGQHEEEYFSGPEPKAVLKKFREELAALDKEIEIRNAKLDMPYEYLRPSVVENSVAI
# method-notes: Inhibition of 15-LOX-1 in human blood PMNL assessed as remaining activity by measuring 15-HETE synthesis at 10 uM
Numeric answer only, unit % assumed.

The cases that follow already have their Activity on record.
CCCCCCC1=C(OC)C(=O)C=C(OC)C1=O :: 101
CCCCCCCCCCC1=C(OC)C(OC)=CC(=O)C1=O :: 148
CCCCCCC1=C(OC)C(OC)=CC(=O)C1=O :: 91.7
CCCCCCCCCCCCCCCCC1=C(OC)C(=O)C=C(OC)C1=O :: 97.8
CCCCCCCCCCCCCCCC1=C(O)C(=O)C=C(O)C1=O :: 103
CCCCCCCCCCC1=C(O)C(=O)C=C(O)C1=O :: 90

Report Activity for CCCCCCC1=C(O)C(=O)C=C(O)C1=O
89.8

Report Activity for CCCCCCCCCCCCC1=C(OC)C(=O)C=C(OC)C1=O
127

# return recorded Activity for entry CCCCCCCCCCCCCC1=C(OC)C(OC)=CC(=O)C1=O
137

---

# target-under-test: Polyunsaturated fatty acid 5-lipoxygenase (Homo sapiens)
# method-notes: Inhibition of 5-LOX in A23187-stimulated human blood PMNL assessed as reduction in lipoxygenase products formation pre-incubated for 15 mins followed by stimulation with A23187 for 10 mins by RP-HPLC based cell based assay
Measured IC50 of individual entries
Express it in nM; write the number only.

Completed entries (count: 3):
CCCCCCCCCCCCCCC1=C(O)C(=O)C=C(OC)C1=O :: 270
COC1=CC(=O)C(=O)C(C/C=C(\C)CCC=C(C)C)=C1OC :: 380
CCCCCCCCCCC1=C(O)C(=O)C=C(OC)C1=O :: 590

Please examine the following record next.
Quote Polyunsaturated fatty acid 5-lipoxygenase (Homo sapiens) IC50 for entry CCCCCCCCCCCCCCCC1=C(OC)C(=O)C=C(OC)C1=O .
390

---

# target-under-test: Polyunsaturated fatty acid 5-lipoxygenase (Homo sapiens, UniProt P09917)
# method-notes: Inhibition of human 5-LOX by cell free assay
property-measured: pIC50
API: returns pIC50 as number; meaning -log10 of concentration in mol/L.

With Polyunsaturated fatty acid 5-lipoxygenase (Homo sapiens, UniProt P09917) as the test system, provide measured pIC50 for this molecule: CCCCCCCCCCCC1=C(O)C(=O)C=C(O)C1=O [EMBELIN]
7.22

---

# target-under-test: UniProt P16050
# Sequence (whole entry): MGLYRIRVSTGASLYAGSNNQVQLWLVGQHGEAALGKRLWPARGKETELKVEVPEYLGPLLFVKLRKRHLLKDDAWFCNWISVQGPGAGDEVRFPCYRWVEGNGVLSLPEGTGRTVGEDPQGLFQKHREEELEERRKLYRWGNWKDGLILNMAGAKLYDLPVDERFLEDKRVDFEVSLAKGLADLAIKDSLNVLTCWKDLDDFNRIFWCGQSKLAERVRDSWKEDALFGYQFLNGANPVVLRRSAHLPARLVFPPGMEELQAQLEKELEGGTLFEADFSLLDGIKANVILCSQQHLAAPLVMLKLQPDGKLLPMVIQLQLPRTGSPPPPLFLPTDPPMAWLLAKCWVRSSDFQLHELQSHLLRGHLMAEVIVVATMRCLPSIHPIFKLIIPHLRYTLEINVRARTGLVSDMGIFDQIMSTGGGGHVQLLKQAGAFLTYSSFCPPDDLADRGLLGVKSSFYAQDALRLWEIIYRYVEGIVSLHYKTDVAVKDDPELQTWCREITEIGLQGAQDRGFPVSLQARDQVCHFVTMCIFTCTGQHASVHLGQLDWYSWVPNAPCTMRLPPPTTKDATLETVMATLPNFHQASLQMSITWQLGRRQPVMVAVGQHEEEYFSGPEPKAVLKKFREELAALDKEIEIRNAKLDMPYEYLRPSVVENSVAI
# method-notes: Inhibition of 15-LOX-1 in human blood PMNL assessed as remaining activity by measuring 15-HETE synthesis at 10 uM
property-measured: Activity (%)
// return numeric value only (unit: %, not printed)

Solved entries (count: 5):
CCCCCCC1=C(O)C(=O)C=C(OC)C1=O :: 65.8
COC1=CC(=O)C(OC)=C(C/C=C(\C)CC/C=C(\C)CCC=C(C)C)C1=O :: 136
COC1=CC(=O)C(O)=C(C/C=C(\C)CCC=C(C)C)C1=O :: 112
CCCCCCCCCCCCCCCCC1=C(O)C(=O)C=C(O)C1=O :: 105
CCCCC1=C(OC)C(OC)=CC(=O)C1=O :: 129

# return recorded Activity for entry CCCCCCCCCCCCCC1=C(O)C(=O)C=C(O)C1=O
124

Supply Activity value. Item: CC(C)=CCC/C(C)=C/CC/C(C)=C/CC1=C(O)C(=O)C=C(O)C1=O
95.2

Supply recorded Activity for N#C/C(=C\c1ccc(O)c(O)c1)C(=O)OC/C=C/c1ccccc1 here.
5.2

Using the record for CCCCCCCCCCCCC1=C(O)C(=O)C=C(OC)C1=O , state its measured Activity.
116
